test: Antiproliferative activity against AR-rich human LNCaP-hr cells assessed as reduction in cell viability after 24 hrs by CCK-8 assay; format: functional
IC50: recorded values

compound: COc1ccc(N2CCN(c3cc(=O)oc4c3ccc3ccccc34)CC2)cc1
result qualifier: =
IC50 / µM: 5.6
--
compound: CCOc1ccccc1N1CCN(c2cc(=O)oc3c2ccc2ccccc23)CC1
result qualifier: =
IC50 / µM: 1.43
--
compound: Cc1ccc(Cl)cc1N1CCN(c2cc(=O)oc3c2ccc2ccccc23)CC1
result qualifier: =
IC50 / µM: 15.3
--
compound: O=c1cc(N2CCN(c3ccc(Br)cc3)CC2)c2ccc3ccccc3c2o1
result qualifier: >
IC50 / µM: 50
--
compound: O=c1cc(N2CCN(c3ccccc3)CC2)c2ccc3ccccc3c2o1
result qualifier: =
IC50 / µM: 5.05
--
compound: CC(C)(C)NC(=O)[C@H]1CC[C@H]2[C@@H]3CC[C@H]4NC(=O)C=C[C@]4(C)[C@H]3CC[C@]12C [FINASTERIDE]
result qualifier: =
IC50 / µM: 14.5
--
compound: Cc1cccc(N2CCN(c3cc(=O)oc4c3ccc3ccccc34)CC2)c1
result qualifier: =
IC50 / µM: 32.5
--
compound: O=c1cc(N2CCN(c3cccc(Cl)c3)CC2)c2ccc3ccccc3c2o1
result qualifier: =
IC50 / µM: 2.9
--
compound: O=c1cc(N2CCN(Cc3ccccc3)CC2)c2ccc3ccccc3c2o1
result qualifier: =
IC50 / µM: 0.52
--
compound: COc1ccccc1N1CCN(c2cc(=O)oc3c2ccc2ccccc23)CC1
result qualifier: =
IC50 / µM: 1.7
--
compound: O=c1cc(N2CCN(c3ccccc3F)CC2)c2ccc3ccccc3c2o1
result qualifier: =
IC50 / µM: 1.89
--
compound: N#Cc1ccc(N2CCN(c3cc(=O)oc4c3ccc3ccccc34)CC2)c(F)c1
result qualifier: =
IC50 / µM: 37.8
--
compound: O=c1cc(N2CCN(c3ccccc3Cl)CC2)c2ccc3ccccc3c2o1
result qualifier: =
IC50 / µM: 9.69
